system: OCI-LY10; assay: CTG Cell Viability Assay - OCI-LY10; type: cell-based, human; conditions: Homo sapiens, OCI-Ly10, 96 h, OCI-LY10, 4 days; read-out: CTG Cell Viability Assay - OCI-LY10: Average external-IC50
pIC50: −log10 of the molar value.
Reported pIC50 values for a set of molecules

pIC50 for CN(CCCOCCCNc1cccc2c1C(=O)N(C1CCC(=O)NC1=O)C2=O)C[C@H]1CC[C@H](n2cc(NC(=O)c3cnn4ccc(NCC5CC5)nc34)c(C(F)F)n2)CC1 (stereo partly shown) [I-437] ?
6.30 to 7.00

Also C[C@@H]1CN(c2ccn3ncc(C(=O)Nc4cn([C@H]5CC[C@H](C(=O)N6CCC7(CC6)CN(CCCc6cccc8c6n(C)c(=O)n8C6CCC(=O)NC6=O)C7)CC5)nc4C(F)F)c3n2)C[C@H](C)O1 (stereo partly shown) [I-480] ?
< 6.00

Also Cn1c(=O)n(C2CCC(=O)NC2=O)c2ccc(C#CC3CCN(C[C@H]4CC[C@H](n5cc(NC(=O)c6coc(-c7ccnc(NCC8CC8)c7)n6)c(C(F)F)n5)CC4)CC3)cc21 (stereo partly shown) [I-111] ?
< 6.00

Also O=C1CCC(N2C(=O)c3cccc(N4CCC(CCCN5CCC(n6cc(NC(=O)c7cnn8ccc(N[C@@H]9CCCC[C@@H]9O)nc78)c(C(F)F)n6)CC5)CC4)c3C2=O)C(=O)N1 (stereo partly shown) [I-298] ?
6.30 to 7.00

Also O=C1CCC(N2C(=O)c3cccc(NCCCOC4CCN(C[C@H]5OC[C@H](n6cc(NC(=O)c7cnn8ccc(N9CCOCC9)nc78)c(C(F)F)n6)CO5)CC4)c3C2=O)C(=O)N1 (stereo partly shown) [I-451] ?
6.30 to 7.00

Also CN(Cc1ccc(CCNc2cccc3c2C(=O)N(C2CCC(=O)NC2=O)C3=O)cc1)C[C@H]1CC[C@H](n2cc(NC(=O)c3cnn4ccc(N5C[C@H]6C[C@@H]5CO6)nc34)c(C(F)F)n2)CC1 (stereo partly shown) [I-341] ?
< 6.00

Also Cn1c(=O)n(C2CCC(=O)NC2=O)c2ccc(CCCN3CCO[C@@H](CNC[C@H]4CC[C@H](n5cc(NC(=O)c6coc(-c7ccnc(NCC8CC8)c7)n6)c(C(F)F)n5)CC4)C3)cc21 (stereo partly shown) [I-16] ?
6.30 to 7.00

Also Cc1c[nH]c2ncnc(N[C@H]3CC[C@H](N4CCN(C(=O)COCCOCCOCCOCCCc5ccc6c(c5)n(C)c(=O)n6C5CCC(=O)NC5=O)CC4)CC3)c12 (stereo partly shown) [I-26] ?
< 6.00

Also O=C1CCC(N2C(=O)c3cccc(NCCCOCCCN4CCC(n5cc(NC(=O)c6cnn7ccc(N8CCOCC8)nc67)c(C(F)F)n5)CC4)c3C2=O)C(=O)N1 (stereo not shown) [I-226] ?
> 7.30

Also C[C@H](/C=C/c1cccc2c1n(C)c(=O)n2C1CCC(=O)NC1=O)OC1CCN(C[C@H]2CC[C@H](n3cc(NC(=O)c4cnn5ccc(N6C[C@H]7C[C@@H]6CO7)nc45)c(C(F)F)n3)CC2)CC1 (stereo partly shown) [I-559] ?
< 6.00

----------
Reported DC50 values for a set of molecules
biological target: IRAK4 (Homo sapiens (Human)); experiment: IRAK4 MSD degradation in OCI-LY10; format: cell-based; settings: OCI-LY10, 24 hrs, MSD; read-out: IRAK4 MSD degradation in OCI-LY10 at 24 hrs: Average external-Abs DC50
Sequence (Q9NWZ3 whole entry): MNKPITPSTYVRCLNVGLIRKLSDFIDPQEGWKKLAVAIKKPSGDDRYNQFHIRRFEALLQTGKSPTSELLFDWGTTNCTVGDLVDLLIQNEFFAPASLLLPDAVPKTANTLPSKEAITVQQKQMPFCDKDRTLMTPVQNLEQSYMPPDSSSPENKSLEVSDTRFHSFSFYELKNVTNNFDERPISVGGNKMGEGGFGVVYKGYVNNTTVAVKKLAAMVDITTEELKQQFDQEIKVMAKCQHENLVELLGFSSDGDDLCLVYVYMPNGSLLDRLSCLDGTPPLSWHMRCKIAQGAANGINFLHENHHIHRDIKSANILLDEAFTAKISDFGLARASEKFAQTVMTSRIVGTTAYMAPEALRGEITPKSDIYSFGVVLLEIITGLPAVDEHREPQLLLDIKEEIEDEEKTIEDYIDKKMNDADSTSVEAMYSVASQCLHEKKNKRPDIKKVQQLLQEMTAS

In the examples that follow, each entry is paired with its recorded DC50.
| molecule | DC50 |
| --- | --- |
| COc1cc(C(=O)NCCCCCCN(C)C[C@H]2CC[C@H](n3cc(NC(=O)c4coc(-c5ccnc(NCC6CC6)c5)n4)c(C(F)F)n3)CC2)ccc1NC(=O)[C@@H]1N[C@@H](CC(C)(C)C)[C@](C#N)(c2ccc(Cl)cc2F)[C@H]1c1cccc(Cl)c1F | > 1000 nM |
| CC[C@@H]1[C@H](F)C(=O)N[C@@H]1COc1ncc(C#C[C@H]2CC[C@H](CN(C)CCCOCCCc3ccc4c(c3)n(C)c(=O)n4C3CCC(=O)NC3=O)CC2)c2cc(C(N)=O)c(OC)cc12 (stereo partly shown) | 10 to 100 nM |
| CN(CCN1CCO[C@H](CCNc2cccc3c2C(=O)N(C2CCC(=O)NC2=O)C3=O)C1)C[C@H]1CC[C@H](n2cc(NC(=O)c3cnn4ccc(N5C[C@H]6C[C@@H]5CO6)nc34)c(C(F)F)n2)CC1 (stereo partly shown) | 10 to 100 nM |
| CC[C@@H]1[C@H](F)C(=O)N[C@@H]1COc1ccc(-c2ncn(CN(C)CCCOCCCc3cccc4c3n(C)c(=O)n4C3CCC(=O)NC3=O)n2)c2cc(C(N)=O)c(OC)cc12 (stereo partly shown) | 100 to 1000 nM |
| Cc1c[nH]c2ncnc(N[C@H]3CC[C@H](N4CCN(C(=O)CCOCCCc5ccc6c(c5)n(C)c(=O)n6C5CCC(=O)NC5=O)CC4)CC3)c12 (stereo partly shown) | > 1000 nM |
| O=C1CCC(N2C(=O)c3cccc(NCCCOC4CCN(C[C@H]5CC[C@H](n6cc(NC(=O)c7cnn8ccc(N9C[C@H]%10C[C@@H]9CO%10)nc78)c(C(F)F)n6)CC5)CC4)c3C2=O)C(=O)N1 (stereo partly shown) | 10 to 100 nM |

DC50 for O=C1CCC(N2C(=O)c3cccc(NCCCOCCCN4CCC(n5cc(NC(=O)c6cnn7ccc(N8CCOCC8)nc67)c(C(F)F)n5)CC4)c3C2=O)C(=O)N1 (stereo not shown) ?
10 to 100 nM

Also CN(C[C@H]1CC[C@H](n2cc(NC(=O)c3cnn4ccc(N5CCOCC5)nc34)c(C(F)F)n2)CC1)[C@H]1CC[C@H](Nc2cccc3c2C(=O)N(C2CCC(=O)NC2=O)C3=O)CC1 (stereo partly shown) ?
< 10 nM

Also Cn1c(=O)n(C2CCC(=O)NC2=O)c2ccc(CCCCCCC(=O)N3CCN([C@H]4CC[C@H](Nc5ncnc6[nH]cc(C7CCOCC7)c56)CC4)CC3)cc21 (stereo partly shown) ?
> 1000 nM

Also CN(C[C@H]1CC[C@H](n2cc(NC(=O)c3cnn4ccc(N5CCOCC5)nc34)c(C(F)F)n2)CC1)[C@H]1CC[C@@H](Nc2cccc3c2C(=O)N(C2CCC(=O)NC2=O)C3=O)CC1 (stereo partly shown) ?
10 to 100 nM
